# Tested on: Hepatitis C virus
# Test Summary: Antiviral activity against Hepatitis C virus 1b con1 infected in human hepatoma cells assessed as decrease in replicon RNA level after 3 days by RT-PCR analysis
# Type: functional, organism-based, Hepacivirus hominis
# Condition Context: genotype 1b Con1, 72 h
Measurement Type: EC50 (nM)

>>> reported_value("Cc1nc(N[C@H](C)c2ccc(OC(F)(F)F)cc2)nc(N[C@@H]2C[C@H](CO)[C@@H](O)[C@H]2O)c1-c1nc2c(C(C)C)nccc2s1")
26
>>> reported_value("Cc1nc(NCc2ccc(OC(F)(F)F)cc2)nc(N[C@@H]2C[C@H](CO)[C@@H](O)[C@H]2O)c1-c1nc2cnccc2s1")
3
>>> reported_value("Cc1nc(N[C@H](C)c2ccc(OC(F)(F)F)cc2)nc(N[C@@H]2C[C@H](CO)[C@@H](O)[C@H]2O)c1-c1nc2c(N)nccc2s1")
37
>>> reported_value("Cc1nc(N[C@H](C)c2ccc(OC(F)(F)F)cc2)nc(N[C@@H]2C[C@H](CO)[C@@H](O)[C@H]2O)c1-c1nc2c(C)nccc2s1.Cl")
16
